Test system: Escherichia coli ATCC 25922
TEST PROTOCOL: Minimum inhibitory concentration (MIC), CLSI broth micro-dilution, E. coli
Type: cell-based
MEASUREMENT SETUP: Escherichia coli, ATCC25922, Table 6, cation adjusted Mueller Hinton Broth + 0.002% Tween-80, 35° C., 22 hours
MIC listing for selected molecules.
MEASURED METRIC: MIC (µM)

* Cc1nc(-c2ccc(OC3CCCCC3)cc2)nc(C)c1C(=O)N[C@@H](CCNC(=O)CO)C(=O)N(C)[C@@H]1C(=O)N[C@@H](C)C(=O)N[C@H](C(=O)NCC#N)Cc2ccc(OCCN)c(c2)-c2cc1ccc2OCCN [Compound 511] | 2
* CONCC[C@H](NC(=O)c1cnc(-c2ccc(C(C)(C)C)cc2)nc1C)C(=O)N(C)[C@@H]1C(=O)N[C@@H](C)C(=O)N[C@H](C(=O)NCC#N)Cc2ccc(OCCN)c(c2)-c2cc1ccc2OCCN (racemic) [Compound 460] | 4.1
* CC(=O)NCC[C@H](NC(=O)c1c(C)nc(-c2ccc(OC3CCCCC3)cc2)nc1C)C(=O)N(C)[C@@H]1C(=O)N[C@@H](C)C(=O)N[C@H](C(=O)NCC#N)Cc2ccc(OCCN)c(c2)-c2cc1ccc2OCCN [Compound 496] | 1
* Cc1nc(-c2ccc(C(C)(C)C)cc2)ncc1C(=O)N[C@@H](CCN)C(=O)N(C)[C@@H]1C(=O)N[C@@H](C)C(=O)N[C@H](C(=O)NCC#N)Cc2ccc(OCCN(C)C)c(c2)-c2cc1ccc2OCCN(C)C (racemic) [Compound 442] | 0.91
* CCC1(Oc2ccc(-c3nc(C)c(C(=O)N[C@@H](CCN)C(=O)N(C)[C@@H]4C(=O)N[C@@H](C)C(=O)N[C@H](C(=O)NCC#N)Cc5ccc(OCCN)c(c5)-c5cc4ccc5OCCN)c(C)n3)cc2)CC1 (racemic) [Compound 345] | 0.25
* Cc1nc(-c2ccc(OC3CCCCC3)cc2)nc(C)c1C(=O)N[C@@H](CCNC=O)C(=O)N(C)[C@@H]1C(=O)N[C@@H](C)C(=O)N[C@H](C(=O)NCC#N)Cc2ccc(OCCN)c(c2)-c2cc1ccc2OCCN (racemic) [Compound 504] | 0.75
* C[C@@H]1NC(=O)[C@@H](N(C)C(=O)[C@H](CCN)NC(=O)c2cc([N+](=O)[O-])c(-c3ccc(C(C)(C)C)cc3)nc2N)c2ccc(OCCN)c(c2)-c2cc(ccc2OCCN)C[C@@H](C(=O)NCC#N)NC1=O (racemic) [Compound 415] | 1.5
* CCCCc1ccc(-c2nc(C)c(C(=O)N[C@@H](CCN)C(=O)N(C)[C@@H]3C(=O)N[C@@H](C)C(=O)N[C@H](C(=O)NCC#N)Cc4ccc(OCCN)c(c4)-c4cc3ccc4OCCN)c(C)n2)nc1 (racemic) [Compound 293] | 1.5
* CC(C)Cc1ccc(-c2ncc(C(=O)N[C@@H](CCN)C(=O)N(C)[C@@H]3C(=O)N[C@@H](C)C(=O)N[C@H](C(=O)NCC#N)Cc4ccc(OCCN)c(c4)-c4cc3ccc4OCCN)c(C(F)F)n2)cc1 (racemic) [Compound 418] | 0.064

* * *

Each entry below carries its reported MIC.
Tested on: Escherichia coli ATCC 25922
TEST PROTOCOL: Minimum inhibitory concentration (MIC), CLSI broth micro-dilution, E. coli
Type: cell-based
MEASUREMENT SETUP: Escherichia coli, ATCC25922, Table 6, cation adjusted Mueller Hinton Broth + 0.002% Tween-80, 35° C., 22 hours
MEASURED METRIC: MIC (µM)

• Cc1cc(-c2ccc(C(C)(C)C)cc2[N+](=O)[O-])nc(C)c1C(=O)N[C@@H](CCN)C(=O)N(C)[C@@H]1C(=O)N[C@@H](C)C(=O)N[C@H](C(=O)NCC#N)Cc2ccc(OCCN)c(c2)-c2cc1ccc2OCCN (racemic) = 0.5
• Cc1nc(-c2ccc(CC(C)(C)C)cc2)ncc1C(=O)N[C@@H](CCN)C(=O)N(C)[C@@H]1C(=O)N[C@@H](C)C(=O)N[C@H](C(=O)NCC#N)Cc2ccc(OCCN)c(c2)-c2cc1ccc2OCCN (racemic) = 0.099
• Cc1nc(-c2ccc(OC3CCCCC3)cc2)nc(C)c1C(=O)N[C@@H](CC(N)=O)C(=O)N(C)[C@@H]1C(=O)N[C@@H](C)C(=O)N[C@H](C(=O)NCC#N)Cc2ccc(OCCN)c(c2)-c2cc1ccc2OCCN = 0.83
• Cc1nc(-c2ccc(C(C)(C)C)cc2)nc(C)c1C(=O)N[C@H](COC(C)(C)C)C(=O)N[C@@H](CCN)C(=O)N(C)[C@@H]1C(=O)N[C@@H](C)C(=O)N[C@H](C(=O)NCC#N)Cc2ccc(OCCN)c(c2)-c2cc1ccc2OCCN (racemic) = 1
